Assignment: determine reported melting point for the given compounds.

Measured melting point, CC(C)(C)OC(=O)NC[C@H]1CN(c2ccc(C3=NNC(=S)CS3)c(F)c2)C(=O)O1 : 134 to 136 °C

Data point: CC(C)(C)OC(=O)NC[C@H]1CN(c2ccc(C3=NNC(=O)CS3)c(F)c2)C(=O)O1 ; melting point = 167 to 168 °C

Consider COC(=O)CN1N=C(c2ccc(N3C[C@H](CNC(C)=O)OC3=O)cc2F)SCC1=O . Its measured melting point is 157 to 158 °C

Given item CC(=O)CC(=O)NC[C@H]1CN(c2ccc(C3=NNC(=O)CS3)c(F)c2)C(=O)O1 , the value recorded as its melting point is 176 to 178 °C

Value of melting point reported for the compound CC(=O)NC[C@H]1CN(c2ccc(C3=NNC(=O)C(C(C)C)S3)c(F)c2)C(=O)O1 (some centres unmarked) is 201 to 203 °C
